test system: GSK3B; conditions: concentration: 1 μM, replicates: in singlicate; n = 1;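 note: KINOMEscan kinase panel screen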
EXPERIMENTAL_READOUT: %Inh
State the value with its unit after it.

MOLECULE: O=c1cc(N2CCOCC2)nc2n(Cc3cccc(Cl)c3Cl)c3ccccc3n12 [GSK2299009]
%Inh: 14%

MOLECULE: Cc1ccc(NC(=O)c2ccc(Cl)cc2)cc1-c1ccc(C(=O)Nc2ccncc2)cc1 [GSK1398467]
%Inh: 17%

MOLECULE: CCn1c(-c2c(N)noc2C)nc2cnccc21 [SB-737856]
%Inh: 2%

Would you mind giving %Inh for every molecule in the list below?
1. COc1ccc(Nc2nccc(NCCNC(=O)Nc3cc(C)ccc3C)n2)cc1 [GSK1379899]
2. Cc1cccc2c(-c3ccncn3)c(-c3ccc(F)cc3)nn12 [GW515532]
3. COc1ccc2cc(-c3nc(-c4ccccc4C(C)C)[nH]c3-c3ccncc3)ccc2c1 [SB-660566]
4. COC(=O)c1cccc(NC(=O)NC2CCN(c3ccnc(Nc4ccc(F)cc4)n3)C2)c1 (stereo not drawn) [GSK1379725]
5. O=c1cc(N2CCOCC2)nc2n(Cc3ccccc3F)ccn12 [GSK2297428]
6. FC(F)(F)c1ccccc1-c1cc(-c2c[nH]nc2-c2ccccn2)ccn1 [GW679396]

Reply:
["0%", "0%", "17%", "0%", "3%", "12%"]

====

test system: GRK3; construct: gene ADRBK2; details: concentration: 1 μM, replicates: in singlicate; n = 1
EXPERIMENTAL_READOUT: %Inh (%)
Numbers only, in %.

Consider the following illustrative entries.
MOLECULE: CC(C)c1ccc(O)cc1Nc1ccnc2ccc(C(F)(F)F)cc12 [GW482059]
%Inh, %: 0
--
MOLECULE: Cc1ccc(-c2nc(Nc3ccncc3)c3ccccc3n2)s1 [GSK189015]
%Inh, %: 0
--
MOLECULE: COc1cccc(CNC(=O)NC2CCN(c3ccnc(Nc4ccc(F)cc4)n3)C2)c1 (stereo not drawn) [GSK1379723]
%Inh, %: 37
--
MOLECULE: Cn1cncc1C(=O)NC1CCN(c2ccnc(Nc3ccc(F)cc3)n2)C1 (stereo not drawn) [GSK1379717]
%Inh, %: 0

For each entry beneath this line, provide reported %Inh.
1. CS(=O)(=O)CCNCc1nc(-c2ccc3ncnc(Nc4ccc(OCc5ccccc5)c(Cl)c4)c3c2)cs1.Cl [GW582764]
2. O=c1cc(N2CCOCC2)nc2n(Cc3cccc(Cl)c3Cl)c3ccccc3n12 [GSK2299009]

Reply:
1. 99.4
2. 0

====

test system: OSR1; construct: gene OXSR1; details: concentration: 1 μM, replicates: in singlicate; n = 1
Binary classification by %Inh, with 5% as an inclusive lower bound for T; all other cases are F.

Answered examples (4):
COMPOUND: Nc1cccc(-c2ccc3c(N)n[nH]c3c2)n1 [GSK2192730]
CLASS_ASSIGNMENT: F
--
COMPOUND: COc1ccc(Nc2nccc(N3CCC(NC(=O)C(C)c4ccc(Cl)cc4)CC3)n2)cc1 (centres unmarked) [GSK1379812]
CLASS_ASSIGNMENT: F
--
COMPOUND: Cc1ccc(NC(=O)Nc2ccccc2F)cc1-c1ccc(C(=O)Nc2ccncc2)cc1 [GSK1398477]
CLASS_ASSIGNMENT: T
--
COMPOUND: Nc1nccc(-c2c(-c3ccc(F)cc3)ncn2C2CCN(Cc3ccccc3)CC2)n1 [SB-219980]
CLASS_ASSIGNMENT: T

Query: Entry CS(=O)(=O)CCNCc1nc(-c2ccc3ncnc(Nc4ccc5c(cnn5Cc5ccccc5)c4)c3c2)cs1.Cl.Cl [GW569716] : is its %Inh no less than 5%?
Reply: F

Query: Quick check: does Cc1cccc2c(-c3ccncn3)c(-c3ccc(F)cc3)nn12 [GW515532] have %Inh greater than or equal to 5%?
Reply: T

====

test system: BRSK2; conditions: concentration: 1 μM, replicates: in singlicate; n = 1
Kindly supply the reported %Inh values for the records listed here.

Known %Inh results, listed for orientation:
COMPOUND: CCn1c(-c2c(N)noc2C)nc2cnccc21
%Inh: 0%

COMPOUND: Cn1cnc2c(N)ncnc21
%Inh: 0%

Parameters: items (list). Returns: %Inh for each item.
1. CNc1nc(-c2ccc3c(N)n[nH]c3c2)cc(N2C[C@@H](C(=O)Nc3ccccc3)CC[C@H]2C)n1
2. COC(=O)C(NC(=O)NC1CCN(c2ccnc(Nc3ccc(F)cc3)n2)C1)c1ccccc1 (stereo not drawn)
3. Cc1ccc(NC(=O)Nc2ccccc2)cc1-c1ccc(C(=O)Nc2ccncc2)cc1
4. COc1ccc(CSc2nnc(-c3ccc4nccn4c3)o2)cc1C(F)(F)F
5. COc1nccc(-c2c(-c3ccc(F)cc3)ncn2CCCN2CCOCC2)n1
6. Cl.Cl.Cl.N#Cc1ccc(CCNc2nccc(-c3cccc(CN4CCNCC4)c3)n2)cc1

Reply:
21%
0%
2%
3%
0%
2%

====

system: TGFBR1; settings: concentration: 1 μM, replicates: in singlicate; n = 1
Decide using %Inh: a value greater than or equal to 1% is yes, a smaller one is no.

MOLECULE: CCCCc1nn2ncccc2c1-c1ccnc(NC2CC2)n1 [GW684374]
EXPERIMENTAL_TARGET: TGFBR1
CLASS_ASSIGNMENT: yes

MOLECULE: CC[C@@H]1CO[C@H](C(=O)Nc2ccccc2)CN1c1cc(-c2ccc3c(N)n[nH]c3c2)nc(NC)n1 [GSK2376236]
EXPERIMENTAL_TARGET: TGFBR1
CLASS_ASSIGNMENT: yes

Query: Please check the record Cc1cccc2c(-c3ccncn3)c(-c3ccc(F)cc3)nn12 [GW515532] and state if its %Inh is at or above 1%.
Reply: no

Query: Quick check: does O=C(Nc1n[nH]c2nc(-c3cccs3)c(Br)cc12)C1CCCC1 [SB-743341] have %Inh greater than or equal to 1%?
Reply: yes

Query: hey, is %Inh for this one >= 1%? Nc1ncnc2occ(-c3ccc4c(c3)CCN4C(=O)Cc3cc(F)ccc3F)c12 [GSK2645446]
Reply: no

Query: Does `CN1c2ccc(-c3ccc(C(N)=O)cc3)cc2-c2[nH]ncc2S1(=O)=O` have a reported %Inh of at least 1%?
Reply: yes

Query: Quick check: does COc1cccc(NC(=O)Nc2ccc(C)c(-c3ccc(C(=O)Nc4ccncc4)cc3)c2)c1 [GSK1398474] have %Inh greater than or equal to 1%?
Reply: no

Query: Reported %Inh reaches at least 1% for COC(=O)C(Cc1ccccc1)NC(=O)NC1CCN(c2ccnc(Nc3ccc(F)cc3)n2)C1 (centres unmarked) [GSK1379714] ?
Reply: yes

Query: Could you please find out whether O=C(Nc1n[nH]c2cc(-c3ccsc3)ccc12)C1CC1 [SB-732932] has %Inh that meets 1% or exceeds it?
Reply: no

Query: Determine whether measured %Inh meets or exceeds 1% for CNc1nc(-c2ccc3c(N)n[nH]c3c2)cc(N2C[C@@H](C(=O)NC3CCCCC3)OC[C@H]2C)n1 [GSK2375584]
Reply: yes

====

test system: LCK; details: concentration: 1 μM, replicates: in singlicate; n = 1
EXPERIMENTAL_READOUT: %Inh (%)
One number for each entry, in %.

Study these solved cases before continuing.
COMPOUND: CC[C@@H]1CO[C@H](C(=O)Nc2ccccc2)CN1c1cc(-c2ccc3c(N)n[nH]c3c2)nc(NC)n1 [GSK2376236]
EXPERIMENTAL_TARGET: LCK
OUTPUT_UNIT: %
%Inh: 30

COMPOUND: Cn1cncc1-c1cc2c(Nc3ccc(OCc4ccccc4)cc3)ncnc2cn1 [GW281179]
EXPERIMENTAL_TARGET: LCK
OUTPUT_UNIT: %
%Inh: 24

COMPOUND: CC(=O)c1cccc(NC(=O)NC2CCN(c3ccnc(Nc4ccc(F)cc4)n3)C2)c1 (stereo not drawn) [GSK1379710]
EXPERIMENTAL_TARGET: LCK
OUTPUT_UNIT: %
%Inh: 12

COMPOUND: O=c1cc(N2CCOCC2)nc2n(Cc3ccccc3F)ccn12 [GSK2297428]
EXPERIMENTAL_TARGET: LCK
OUTPUT_UNIT: %
%Inh: 28

COMPOUND: Nc1ncnc2occ(-c3ccc4c(c3)CCN4C(=O)Cc3cc(F)ccc3F)c12 [GSK2645446]
EXPERIMENTAL_TARGET: LCK
OUTPUT_UNIT: %
%Inh: 5

Batch request: %Inh for each of the following compounds.
1. CNCc1ccc2nc(NC(=O)c3ccc(C(C)(C)C)cc3)cn2c1
2. COC(=O)c1cccc(NC(=O)NC2CCN(c3ccnc(Nc4ccc(OC)cc4)n3)C2)c1 (stereo not drawn) [GSK1379746]
3. c1ccc(-c2ccnc3[nH]ccc23)cc1 [SB-693578]

Reply:
1: 2; 2: 11; 3: 7

Query: State the recorded %Inh for this entry: COc1ccc(Nc2nccc(N3CCC(NC(=O)c4cc5ccccc5s4)C3)n2)cc1 (stereo not drawn) [GSK1379738]
Reply: 16
